These data points were gathered from patent US20240350447A1.

# PROTOCOL_NOTES: Biodistribution of DHA after periorbital skin (NIODP) application to one eye
# Assay type: in vivo, Cynomolgus monkeys
# CONDITION: cynomolgus monkey, retina of the undosed right eye (OD), topical; OD (undosed eye); 24 h; 6755.1 μg to OS via NIODP; read-out: DHA in retina
QUANTITY_NAME: concentration at 24 h (ng/g)
State the answer as a number, implicitly in ng/g.

Prompt: Name the recorded concentration at 24 h for `CC/C=C\C/C=C\C/C=C\C/C=C\C/C=C\C/C=C\CCC(=O)O` .
Response: 35600

---

# PROTOCOL_NOTES: DHA distribution after single periorbital skin administration
# Assay type: in vivo, Bama minipigs
# CONDITION: Bama, minipig, optic nerve, right (undosed side), topical, 6092 μg/eye; 3 h; DHA 6092 μg to periorbital skin of left eye; read-out: Drug Concentration in Tissue: optic nerve-right
# Procedure: In this example, 6092 μg/eye of DHA was applied to the periorbital skin of a left eye of a Bama minipig. […] 27133.8 ng/g of tissue and 24795.8 ng/g of tissue of DHA was measured in the left and right halves of the brain, respectively. Taking the average of these two numbers, the amount of DHA present in the brain 3 hours post-dosage was 25964.9 ng/g. Given that the average Bama pig brain weighs around 60 g, the amount of DHA delivered to the brain can be estimated to be 312,408 ng or 312 μg. […]
QUANTITY_NAME: concentration at 3 h (ng/g)
State the answer as a number, implicitly in ng/g.

Prompt: Name the recorded concentration at 3 h for CC/C=C\C/C=C\C/C=C\C/C=C\C/C=C\C/C=C\CCC(=O)O [DHA, docosahexaenoic acid] .
Response: 15300

---

# PROTOCOL_NOTES: Biodistribution of DHA after periorbital skin (NIODP) application to one eye
# Type: in vivo, Cynomolgus monkeys
# CONDITION: cynomolgus monkey, upper eyelid of the undosed right eye (OD), topical; OD (undosed eye); 6 h; 6755.1 μg to OS via NIODP; read-out: DHA in upper eyelid
QUANTITY_NAME: concentration at 6 h (ng/g)
State the answer as a number, implicitly in ng/g.

Prompt: Name the recorded concentration at 6 h for `CC/C=C\C/C=C\C/C=C\C/C=C\C/C=C\C/C=C\CCC(=O)O` .
Response: 7400

---

# PROTOCOL_NOTES: Biodistribution of DHA after periorbital skin (NIODP) application to one eye
# Format: in vivo, Cynomolgus monkeys
# CONDITION: cynomolgus monkey, cornea of the undosed right eye (OD), topical; OD (undosed eye); 24 h; 6755.1 μg to OS via NIODP; read-out: DHA in cornea
QUANTITY_NAME: concentration at 24 h (ng/g)
State the answer as a number, implicitly in ng/g.

Prompt: Name the recorded concentration at 24 h for `CC/C=C\C/C=C\C/C=C\C/C=C\C/C=C\C/C=C\CCC(=O)O` .
Response: 0

---

# PROTOCOL_NOTES: Biodistribution of DHA after periorbital skin (NIODP) application to one eye
# Assay type: in vivo, Cynomolgus monkeys
# CONDITION: cynomolgus monkey, retina of the dosed left eye (OS), topical; OS (dosed eye); 0 h (baseline); 6755.1 μg to OS via NIODP; read-out: DHA in retina
QUANTITY_NAME: concentration at 0 h (ng/g)
State the answer as a number, implicitly in ng/g.

Prompt: Name the recorded concentration at 0 h for `CC/C=C\C/C=C\C/C=C\C/C=C\C/C=C\C/C=C\CCC(=O)O` .
Response: 16500
